Where do the numbers come from? From ChEMBL document CHEMBL5214886.

Molecular target: Enoyl-[acyl-carrier-protein] reductase [NADH] (Mycobacterium tuberculosis, UniProt P9WGR1)
Sequence (P9WGR1 whole entry): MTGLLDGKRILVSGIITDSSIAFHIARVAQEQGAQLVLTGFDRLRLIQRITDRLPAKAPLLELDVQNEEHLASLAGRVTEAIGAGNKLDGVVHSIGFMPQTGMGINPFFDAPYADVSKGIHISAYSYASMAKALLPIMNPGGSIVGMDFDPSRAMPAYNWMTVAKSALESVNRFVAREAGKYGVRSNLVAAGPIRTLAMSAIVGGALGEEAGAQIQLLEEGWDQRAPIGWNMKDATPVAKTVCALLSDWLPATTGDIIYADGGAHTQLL
pIC50: −log10 of the molar value.
propertyMeasured: pIC50

>>> observedmeasurement("O=C(c1ccc2[nH]ccc2c1)N1CCN(C2c3ccccc3-c3ccc([N+](=O)[O-])cc32)CC1 (stereo unspecified)")
6.57
